# Test system: TAB165
# test-protocol: qHTS profiling for inhibitors of Plasmodium falciparum proliferation (AID 504749); note: nearly all actives have a fitted effect of over 60% in size
# experimental-conditions: P. falciparum in erythrocytes, SYBR Green DNA, 72 h; series mostly up to 28.7 µM
# Protocol: NIH National Institute of Allergy and Infectious Diseases [NIAID] NIH Chemical Genomics Center [NCGC] […] Because mature erythrocytes lack DNA, only Plasmodium-derived DNA is detected. NCGC Assay Protocol Summary: The SYBR Green viability assay was adapted from a method described previously (Plouffe et al., 2008). […] The following morning, fluorescence intensity at 485(14) nm excitation and 535(25) nm emission wavelengths was measured on an EnVision (Perkin Elmer) plate reader. […]
Inconclusive results are not listed. Active and inactive are the calls of the source. Calls come from the whole dose curve; as a rule, active = well fitted inhibition curve with a large enough effect; inconclusive = small, poorly fitted or top-dose-only effect; inactive = flat fitted curve, though single readings scatter.
// classify into label 1 (active), label 0 (inactive)

Qu. Check the results log: what was the call for `NCC(=O)CCC(=O)O` ?
Ans. label 0

Qu. Also CCN(CC)CCNC(C(=O)OCCC(C)C)c1ccccc1 (configuration not stated) ?
Ans. label 1

Qu. Also `Cc1ccc(C(C)C)cc2c(C)ccc1-2` ?
Ans. label 0

Qu. Also `CCCCc1ncc(/C=C(\Cc2cccs2)C(=O)O)n1Cc1ccc(C(=O)O)cc1` ?
Ans. label 0

Qu. Also `Nc1ccc(S(=O)(=O)NC(=O)c2ccccc2)cc1` ?
Ans. label 0

Qu. Also `CN(C)CCCN1c2ccccc2Sc2ccc(Cl)cc21` ?
Ans. label 1

Qu. Also `O=C1O[C@H]([C@@H](O)CO)C(O)=C1O` ?
Ans. label 0

Qu. Also `CCN(CC)CCNC(=O)c1cc(Cl)c(N)cc1OC` ?
Ans. label 0

Qu. Also `COc1ccccc1O` ?
Ans. label 0

Qu. Also Oc1ccc(C(O)CNCCCCCCNCC(O)c2ccc(O)c(O)c2)cc1O (configuration not stated) ?
Ans. label 1

Qu. Also `C[C@H](N)[C@H](O)c1cccc(O)c1` ?
Ans. label 0

Qu. Also `O=c1[nH]c(=O)c2[nH]c(=O)[nH]c2[nH]1` ?
Ans. label 0

Qu. Also `Cc1c(Cl)cccc1Nc1ccccc1C(=O)O` ?
Ans. label 0

Qu. Also `Nc1nc2c(ncn2CCC(CO)CO)c(=O)[nH]1` ?
Ans. label 0

Qu. Also `O=C(O)c1ccccc1-c1ccc(C(F)(F)F)cc1` ?
Ans. label 0

Qu. Also `CC(=O)CCC(=O)O` ?
Ans. label 0

Qu. Also `Cc1cc(N)c2ccccc2[n+]1CCCCCCCCCC[n+]1c(C)cc(N)c2ccccc21` ?
Ans. label 1

Qu. Also `CCOC(=O)[C@H](CCc1ccccc1)N[C@@H](C)C(=O)N1C(=O)N(C)C[C@H]1C(=O)O` ?
Ans. label 0

Qu. Also `C[C@](N)(Cc1ccc(O)cc1)C(=O)O` ?
Ans. label 0

Qu. Also CC(C)(C)C(=O)C(Oc1ccc(Cl)cc1)n1ccnc1 (configuration not stated) ?
Ans. label 1
